These data points were gathered from patent US20150141375A1.

test_protocol: RPTEC DNA replication (BrdU), metabolic activity (WST-1), proliferation (xCELLigence)
Assay type: cell-based, human
experimental_parameters: human; BKV-infected RPTECs; read-out: CC-90 (BrdU incorporation reduced to approximately 10% of untreated infected cells)
measure_name: CC90 (µM)
Answers are plain numbers, in µM.

Param item = `CCCCCCCCCCCCCCCCOCCCOP(=O)(O)CO[C@H](CO)Cn1ccc(N)nc1=O` ; retrieve measured CC90.
10

====

For each record, write down the corresponding AUC.
test_protocol: Safety and pharmacokinetics of CMX001 in healthy volunteers
Format: in vivo, human
experimental_parameters: blood, 0.2 mg/kg; Human, CMX001 0.200 mg/kg; analyte = label
Answers are plain numbers, in ng·h/mL.

For orientation, consider the following solved cases.
In [3]: df
Out[3]:
                                   compound  unit_text  numeric_readout
0  Nc1ccn(C[C@@H](CO)OCP(=O)(O)O)c(=O)n1 [Cidofovir, cidofovir, reference compound]    ng·h/mL              190
1  Nc1ccn(C[C@@H](CO)OCP(=O)(O)OCCCOCCCC(=O)O)c(=O)n1 [CMX064]    ng·h/mL             39.7

Turning now to a further compound:
Suppose we examine the compound CCCCCCCCCCCCCCCCOCCCOP(=O)(O)CO[C@H](CO)Cn1ccc(N)nc1=O [CMX001, Hexadecyloxypropyl-cidofovir] ; what AUC value has been reported?
225

====

test_protocol: SVG cell viability / cell number (MTS, alamar blue, hematoxylin)
Type: cell-based, human
experimental_parameters: human, SVG cells; 1 μM, 4 days; read-out: reduction in cell viability (alamar blue)
measure_name: cytotoxicity at 4 days, 1 μM (%)
One number for each entry, in %.

# get_value(readout='cytotoxicity at 4 days, 1 μM', item= `CCCCCCCCCCCCCCCCOCCCOP(=O)(O)CO[C@H](CO)Cn1ccc(N)nc1=O` )
32

====

test_protocol: SVG cell viability / cell number (MTS, alamar blue, hematoxylin)
Format: cell-based, human
experimental_parameters: human, non-infected SVG cells; 1 μM, non-infected cells; read-out: reduction in viability (MTS)
measure_name: cytotoxicity at 1 μM (%)
Numbers only, in %.

State the recorded cytotoxicity at 1 μM for this entry: `CCCCCCCCCCCCCCCCOCCCOP(=O)(O)CO[C@H](CO)Cn1ccc(N)nc1=O`
15

====

Tested on: Adenovirus
test_protocol: Adenovirus IC50s for CMX001, serotypes/isolates
Format: cell-based
experimental_parameters: unidentified adenovirus, Ad14 ATCC
measure_name: IC50
# include the unit after the value

What value of IC50 has been recorded for this entry: CCCCCCCCCCCCCCCCOCCCOP(=O)(O)CO[C@H](CO)Cn1ccc(N)nc1=O [CMX001, Hexadecyloxypropyl-cidofovir]
22 nM

====

Test system: Adenovirus
test_protocol: Adenovirus IC50s for CMX001, serotypes/isolates
Assay type: cell-based
experimental_parameters: unidentified adenovirus, Ad4 ATCC
measure_name: pIC50
Numbers only, as −log10 of the molar value.

I am curious: what pIC50 value has been reported for `CCCCCCCCCCCCCCCCOCCCOP(=O)(O)CO[C@H](CO)Cn1ccc(N)nc1=O` ?
7.70

====

test_protocol: Single-dose, dose-escalation study in healthy adult volunteers
Type: in vivo, human
experimental_parameters: human, oral; CMX001 2 mg/kg single dose, plasma, Mean
measure_name: half-life (min)
Answers are plain numbers, in min.

Query: half-life; subject: `CCCCCCCCCCCCCCCCOCCCOP(=O)(O)CO[C@H](CO)Cn1ccc(N)nc1=O`
1440

====

test_protocol: Safety and pharmacokinetics of CMX001 in healthy volunteers
Format: in vivo, human
experimental_parameters: blood, 0.05 mg/kg; Human, CMX001 0.050 mg/kg; analyte = label
Would you mind telling me the reported AUC of each entry?
Be sure to follow the number with its unit.

Would you please look over these solved cases?
In [3]: df
Out[3]:
                                   compound        result
0  CCCCCCCCCCCCCCCCOCCCOP(=O)(O)CO[C@H](CO)Cn1ccc(N)nc1=O  36.3 ng·h/mL
1  Nc1ccn(C[C@@H](CO)OCP(=O)(O)O)c(=O)n1 [Cidofovir, cidofovir, reference compound]  33.3 ng·h/mL

Now for another entry.
Which AUC is reported for this compound? `Nc1ccn(C[C@@H](CO)OCP(=O)(O)OCCCOCCCC(=O)O)c(=O)n1`
39 ng·h/mL

====

test_protocol: PK comparison, rabbit
experimental_parameters: in vivo, 2 mg/kg, calculated from doses of 5 and 10 mg/kg, analyte = label, after CMX001
measure_name: AUC (µg·h/mL)
Give bare numbers, in µg·h/mL.

In [3]: df
Out[3]:
                                   compound  numeric_readout
0  Nc1ccn(C[C@@H](CO)OCP(=O)(O)O)c(=O)n1 [Cidofovir, cidofovir, reference compound]           0.0501

Given `CCCCCCCCCCCCCCCCOCCCOP(=O)(O)CO[C@H](CO)Cn1ccc(N)nc1=O` , state its recorded AUC.
0.102

====

test_protocol: Safety and pharmacokinetics of CMX001 in healthy volunteers
Assay type: in vivo, human
experimental_parameters: blood; Human, CMX001 0.025 mg/kg; analyte = label
measure_name: AUC (ng·h/mL)
One number for each entry, in ng·h/mL.

>>> df
                                        smi  numeric_readout
0  Nc1ccn(C[C@@H](CO)OCP(=O)(O)OCCCOCCCC(=O)O)c(=O)n1             11.8

Alright, here's another molecule for you.
Report AUC for `CCCCCCCCCCCCCCCCOCCCOP(=O)(O)CO[C@H](CO)Cn1ccc(N)nc1=O` please.
18.5

====

Task for the reader: assign each of the following molecules its reported AUC.
test_protocol: Safety and pharmacokinetics of CMX001 in healthy volunteers
Assay type: in vivo, human
experimental_parameters: blood, 0.1 mg/kg; Human, CMX001 0.100 mg/kg; analyte = label
Numbers only, in ng·h/mL.

Worked examples follow.
>>> df
                                   molecule  measure_name  numeric_readout
0  Nc1ccn(C[C@@H](CO)OCP(=O)(O)OCCCOCCCC(=O)O)c(=O)n1 [CMX064]           AUC               34
1  Nc1ccn(C[C@@H](CO)OCP(=O)(O)O)c(=O)n1 [Cidofovir, cidofovir, reference compound]           AUC              125

// moving on: another record for AUC
# get_value(readout='AUC', item= CCCCCCCCCCCCCCCCOCCCOP(=O)(O)CO[C@H](CO)Cn1ccc(N)nc1=O [CMX001, Hexadecyloxypropyl-cidofovir] )
133

====

For each of the molecules below, state its Cmax.
test_protocol: Safety and pharmacokinetics of CMX001 in healthy volunteers
Type: in vivo, human
experimental_parameters: blood, 0.6 mg/kg; Human, CMX001 0.600 mg/kg; analyte = label
One number for each entry, in ng/mL.

The following molecules each have a reported value; give each one's Cmax.
1. Nc1ccn(C[C@@H](CO)OCP(=O)(O)OCCCOCCCC(=O)O)c(=O)n1 [CMX064]
2. CCCCCCCCCCCCCCCCOCCCOP(=O)(O)CO[C@H](CO)Cn1ccc(N)nc1=O [CMX001, Hexadecyloxypropyl-cidofovir]
3. Nc1ccn(C[C@@H](CO)OCP(=O)(O)O)c(=O)n1 [Cidofovir, cidofovir, reference compound]

[24.9, 115, 12.2]

====

Test system: Vaccinia Virus
test_protocol: microbe, parasite or virus in culture
Format: cell-based
experimental_parameters: Orthopoxvirus vaccinia, HFF
Please respond with reported EC50 for every item in the list.
Give bare numbers, in µM.

In [3]: df
Out[3]:
                                   molecule   system_tested  measure_name  numeric_readout
0  CCCCCCCCCCCCCCCCOCCCOP(=O)(O)CO[C@H](CO)Cn1ccc(N)nc1=O  Vaccinia Virus          EC50              0.8

Proceeding to the next molecule to report its EC50.
Requested field: EC50. Item: Nc1ccn(C[C@@H](CO)OCP(=O)(O)O)c(=O)n1 [Cidofovir, cidofovir, reference compound]
46

====

Tested on: HSV-2
test_protocol: In vitro efficacy against HSV-2 strains in HFF (CPE, plaque reduction)
Format: cell-based
experimental_parameters: Human alphaherpesvirus 2, ACV resistant strain AG-3
measure_name: EC50

>>> df
                            smi       result
0  Nc1nc2c(ncn2COCCO)c(=O)[nH]1  > 100000 nM

Proceed to the following item.
State its EC50 on HSV-2: `CCCCCCCCCCCCCCCCOCCCOP(=O)(O)CO[C@H](CO)Cn1ccc(N)nc1=O`
23 nM
